- experimental.system: E. coli DNA gyrase (Escherichia coli, UniProt P0AES4+P0AES6)
- Construct: purchased Inspiralis, UK
- assay.details: DNA gyrase supercoiling assay (E. coli)
- Assay type: biochemical
- measurement.context: E. coli; conc. 50 μM; n/a = not active
As shown below, each of these molecules has a reported inhibition at 50 µM value.
Field format: number, assumed %, no unit text.

Example entries and their recorded answers appear below.
> print(dat)
                                   molecule  numeric.result
1  COc1ccc2cc(F)nc(N3CCN(CC(O)CNc4cc(=O)oc5ccc(F)cc45)CC3)c2c1 (centres unmarked) [Compound 203]             100
2  O=c1cc(CC(O)CCN2CCN(c3nccc4ccc(F)cc34)CC2)c2ccccc2o1 (centres unmarked) [Compound 134]              87
3  O=c1cc(NCCC[N+]2([O-])CCN(c3nccc4ccc(F)cc34)CC2)c2ccccc2o1 [Compound 105]              91
4  O=c1nc(NCC(O)CN2CCN(c3nccc4ccc(F)cc34)CC2)c2cc(F)ccc2o1 (centres unmarked) [Compound 148]              96
5  CC1CN(c2nccc3ccc(F)cc23)CCC1NCc1cc2c(=O)oc3ccccc3c2[nH]1 (centres unmarked) [Compound 177]              77
6  O=c1oc2ccccc2c2[nH]c(CNC3CCN(c4nccc5ccc(F)cc45)CC3)nc12 [Compound 146]              91
7  O=c1oc2ccc(F)cc2c2cc(CNC3CCN(c4nccc5ncccc45)CC3)[nH]c12 [Compound 187]              79

Here is the next item to consider.
Return reported inhibition at 50 µM for target or system E. coli DNA gyrase (Escherichia coli, UniProt P0AES4+P0AES6), item O=c1nc(NCC(O)CN2CCN(c3nc(F)cc4ccc(F)cc34)CC2)c2cc(F)ccc2o1 (centres unmarked) [Compound 149] .
90

* * *

- experimental.system: E. coli DNA gyrase (Escherichia coli, UniProt P0AES4+P0AES6)
- Construct: purchased Inspiralis, UK
- assay.details: DNA gyrase supercoiling assay (E. coli)
- Format: biochemical
- measurement.context: E. coli; concentration-response curve, eight half-log concentrations 0.1 to 300 μM; read-out: IC50 DNA gyrase
assay.readout: pIC50
Lab note: report pIC50 as minus log10 of the concentration in molar units, number only.

Return reported pIC50 for target or system E. coli DNA gyrase (Escherichia coli, UniProt P0AES4+P0AES6), item [O-][n+]1ccc2ccc(F)cc2c1Cl [Compound 100] .
5.35

* * *

- experimental.system: S. aureus Topoisomerase IV (Staphylococcus aureus, UniProt P0C1S7+P0C1U9)
- Construct: purchased Inspiralis, UK
- Sequence (P0C1S7 whole entry): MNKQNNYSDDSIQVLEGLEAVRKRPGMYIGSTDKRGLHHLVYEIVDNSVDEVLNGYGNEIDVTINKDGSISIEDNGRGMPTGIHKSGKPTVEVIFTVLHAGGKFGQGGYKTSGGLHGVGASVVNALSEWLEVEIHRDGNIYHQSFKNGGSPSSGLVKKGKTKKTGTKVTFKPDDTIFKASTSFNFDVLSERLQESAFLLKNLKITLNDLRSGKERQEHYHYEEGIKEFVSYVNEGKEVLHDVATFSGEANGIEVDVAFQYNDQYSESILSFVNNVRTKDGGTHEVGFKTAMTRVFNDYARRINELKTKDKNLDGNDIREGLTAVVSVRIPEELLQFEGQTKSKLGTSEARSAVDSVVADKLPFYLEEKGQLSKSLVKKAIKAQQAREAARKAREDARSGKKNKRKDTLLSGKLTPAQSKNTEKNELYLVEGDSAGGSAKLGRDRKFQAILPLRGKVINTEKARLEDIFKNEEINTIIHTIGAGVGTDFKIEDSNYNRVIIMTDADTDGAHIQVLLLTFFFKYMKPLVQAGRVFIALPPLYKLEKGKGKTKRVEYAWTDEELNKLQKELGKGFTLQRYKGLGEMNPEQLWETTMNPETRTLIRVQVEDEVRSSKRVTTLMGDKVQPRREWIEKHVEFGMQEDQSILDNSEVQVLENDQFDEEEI
- Sequence (P0C1U9 whole entry): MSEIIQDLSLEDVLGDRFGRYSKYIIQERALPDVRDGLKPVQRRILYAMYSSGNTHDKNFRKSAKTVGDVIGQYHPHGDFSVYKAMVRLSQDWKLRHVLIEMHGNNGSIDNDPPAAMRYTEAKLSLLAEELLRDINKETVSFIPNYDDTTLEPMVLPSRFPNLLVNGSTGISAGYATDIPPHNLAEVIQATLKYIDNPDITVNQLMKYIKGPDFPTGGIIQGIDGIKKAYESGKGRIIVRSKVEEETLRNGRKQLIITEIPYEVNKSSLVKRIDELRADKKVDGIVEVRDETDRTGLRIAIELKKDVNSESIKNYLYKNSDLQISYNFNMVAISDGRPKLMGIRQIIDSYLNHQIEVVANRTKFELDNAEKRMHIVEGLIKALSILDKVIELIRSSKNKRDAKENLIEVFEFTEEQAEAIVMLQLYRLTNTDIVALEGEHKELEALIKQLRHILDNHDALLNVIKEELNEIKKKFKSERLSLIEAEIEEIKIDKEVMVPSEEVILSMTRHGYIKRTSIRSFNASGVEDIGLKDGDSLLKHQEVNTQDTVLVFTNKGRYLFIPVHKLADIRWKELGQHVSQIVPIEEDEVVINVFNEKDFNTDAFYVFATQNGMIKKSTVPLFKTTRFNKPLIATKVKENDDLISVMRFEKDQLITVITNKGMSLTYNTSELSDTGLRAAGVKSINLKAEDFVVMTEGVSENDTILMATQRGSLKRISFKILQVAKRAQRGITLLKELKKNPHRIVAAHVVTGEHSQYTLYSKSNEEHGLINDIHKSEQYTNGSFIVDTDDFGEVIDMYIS
- assay.details: Topoisomerase IV decatenation assay (S. aureus)
- Assay type: biochemical
- measurement.context: S. aureus; conc. 50 μM; n/a = not active; read-out: % inhibition Topo IV
assay.readout: inhibition at 50 µM

> print(dat)
                                   compound                       experimental.system  result
1  O=c1oc2ccccc2c2[nH]c(CNC3CCN(c4nccc5ccc(F)cc45)CC3O)cc12 (centres unmarked)  S. aureus Topoisomerase IV (Staphylococcus aureus, UniProt P0C1S7+P0C1U9)     87%
2  CC1CN(c2nccc3ccc(F)cc23)CCC1NCc1cc2c(=O)oc3ccccc3c2[nH]1 (centres unmarked)  S. aureus Topoisomerase IV (Staphylococcus aureus, UniProt P0C1S7+P0C1U9)     14%

Entry O=c1oc2ccccc2c2[nH]c(CNC3CCN(c4nccc5ccc(F)cc45)CC3F)cc12 (centres unmarked) needs its inhibition at 50 µM filled in; supply it.
39%

Entry O=c1nc(NCC(O)CN2CCN(c3nccc4ccc(F)cc34)CC2)c2cc(F)ccc2o1 (centres unmarked) needs its inhibition at 50 µM filled in; supply it.
100%

Entry O=c1nc(NCC(O)CN2CCN(c3nccc4ncc(C(F)(F)F)cc34)CC2)c2cc(F)ccc2o1 (centres unmarked) needs its inhibition at 50 µM filled in; supply it.
100%

Entry COc1ccc2ncc(F)c(N3CCC(NCc4cc5c([nH]4)c(=O)oc4ccc(F)cc45)CC3)c2n1 needs its inhibition at 50 µM filled in; supply it.
76%

Entry O=c1oc2ccc(F)cc2c2cc(CNC3CCN(c4nccc5ncccc45)CC3)[nH]c12 needs its inhibition at 50 µM filled in; supply it.
95%

Entry O=c1nc(NCC(O)CN2CCN(c3nccc4ncc(F)cc34)CC2)c2cc(F)ccc2o1 (centres unmarked) needs its inhibition at 50 µM filled in; supply it.
100%
